Biological target: UniProt:P05164
Sequence (P05164 whole entry): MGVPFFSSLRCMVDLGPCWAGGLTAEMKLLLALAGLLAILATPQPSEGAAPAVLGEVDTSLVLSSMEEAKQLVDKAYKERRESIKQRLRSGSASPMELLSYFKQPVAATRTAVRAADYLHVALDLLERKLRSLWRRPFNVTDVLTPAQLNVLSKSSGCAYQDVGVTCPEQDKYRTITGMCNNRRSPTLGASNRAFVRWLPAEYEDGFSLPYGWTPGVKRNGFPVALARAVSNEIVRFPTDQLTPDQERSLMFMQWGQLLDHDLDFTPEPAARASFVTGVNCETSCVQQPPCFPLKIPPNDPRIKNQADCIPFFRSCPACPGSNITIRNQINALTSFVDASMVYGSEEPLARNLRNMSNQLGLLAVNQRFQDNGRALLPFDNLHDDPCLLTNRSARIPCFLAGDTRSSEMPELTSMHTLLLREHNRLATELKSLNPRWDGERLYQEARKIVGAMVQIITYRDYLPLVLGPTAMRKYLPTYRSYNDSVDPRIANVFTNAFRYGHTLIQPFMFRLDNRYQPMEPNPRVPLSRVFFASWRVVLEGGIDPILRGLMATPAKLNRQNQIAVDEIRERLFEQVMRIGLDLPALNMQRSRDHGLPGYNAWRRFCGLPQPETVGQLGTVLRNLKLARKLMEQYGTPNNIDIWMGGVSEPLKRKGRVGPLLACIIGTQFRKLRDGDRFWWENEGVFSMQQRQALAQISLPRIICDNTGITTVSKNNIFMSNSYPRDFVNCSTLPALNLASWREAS
Assay: Inhibition of recombinant MPO mediated LDL oxidation using MPO/Cl-/H2O2 system
pIC50: −log10 of the molar value.
# reported pIC50; entries follow

Here "NCc1c[nH]c2ccc(F)cc12" was tested on UniProt:P05164, and its pIC50 came to < 6.00

Here "CN1CCN(Cc2c[nH]c3ccc(F)cc23)CC1" was tested on UniProt:P05164, and its pIC50 came to < 6.00

Here "CCN(CC)Cc1c[nH]c2ccc(F)cc12" was tested on UniProt:P05164, and its pIC50 came to < 6.00
